target: FLuc-C-NLuc (firefly luciferase) (Photinus pyralis, UniProt P08659, form not given/L550V); assay: Firefly luciferase (FLuc) enzymatic luminescence assay, FLuc-C-NLuc; type: biochemical; set-up: key: % normalized; no enzyme control = 100% inhibition, DMSO = 0; conditions: Log[Compound], M -8.78
Sequence (P08659 2-550 L550V, form open): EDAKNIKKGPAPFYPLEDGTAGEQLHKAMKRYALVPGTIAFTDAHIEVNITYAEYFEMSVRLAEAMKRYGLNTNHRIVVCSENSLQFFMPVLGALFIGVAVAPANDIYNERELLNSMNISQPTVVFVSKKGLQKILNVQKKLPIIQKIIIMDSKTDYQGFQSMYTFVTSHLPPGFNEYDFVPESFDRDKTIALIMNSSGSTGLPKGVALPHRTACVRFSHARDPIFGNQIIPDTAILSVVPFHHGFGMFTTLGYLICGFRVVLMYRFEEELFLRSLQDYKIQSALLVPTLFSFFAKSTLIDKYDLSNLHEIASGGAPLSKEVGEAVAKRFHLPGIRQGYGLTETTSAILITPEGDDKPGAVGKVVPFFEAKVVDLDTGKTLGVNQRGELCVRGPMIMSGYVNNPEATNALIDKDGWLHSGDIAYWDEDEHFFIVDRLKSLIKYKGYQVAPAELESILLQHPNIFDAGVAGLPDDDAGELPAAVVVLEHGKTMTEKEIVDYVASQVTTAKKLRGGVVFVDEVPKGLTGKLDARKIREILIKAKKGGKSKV
Threshold check on Enz: at or above 4 gives t, strictly below gives f.

molecule="CC(NC(=O)C1CCN(C(=O)c2ncn3c2COC(c2ccc(F)cc2)C3)CC1)c1ccc(F)cc1 (centres unmarked)" class_label=f
molecule="CC(CNC(=O)C1CCN(C(=O)c2ncn3c2COC(c2ccccc2)C3)CC1)c1ccccc1 (centres unmarked)" class_label=f
molecule="O=C(Nc1cccc(F)c1)C1CCN(C(=O)c2ncn3c2COC(c2ccccc2)C3)CC1 (centres unmarked)" class_label=f
molecule="CC1CCC(NC(=O)C2CCN(C(=O)c3ncn4c3COC(c3ccc(Cl)cc3)C4)CC2)CC1 (centres unmarked)" class_label=f
molecule="COc1ccc(NC(=O)C2CCN(C(=O)c3ncn4c3COC(c3ccccc3)C4)CC2)cc1Cl (centres unmarked)" class_label=t

---

Consider the following compounds and their measured FLuc Enzyme readings.
biological target: FLuc-C-HiBiT (firefly luciferase) (Photinus pyralis, UniProt P08659, form not given/L550V); assay: Firefly luciferase (FLuc) enzymatic luminescence assay, FLuc-C-HiBiT; type: biochemical; parameters: key: % normalized; no enzyme control = 100% inhibition, DMSO = 0; details: 10 nM FLuc-C-HiBiT; normalized activity; Log [Compound], M -8.30
Sequence (P08659 2-550 L550V, form open): as above
ENDPOINT_LABEL: FLuc Enzyme

compound="CC1CCCN(c2ncnc3c2cnn3-c2ccccc2)C1 (centres unmarked)" value_observed=9.0
compound=O=C(O)c1cccc2c1CCN2C(=O)Nc1ccc(F)cc1 value_observed=-61.1
compound="CC(CNC(=O)C1CCN(C(=O)c2ncn3c2COC(c2ccccc2)C3)CC1)c1ccccc1 (centres unmarked)" value_observed=6.2
compound=COc1ccc(-c2nc(-c3ccc(C(=O)O)cc3)no2)cc1 value_observed=-0.8
compound=O=C(O)CCSc1nnc(-c2ccc(Cl)cc2Cl)o1 value_observed=3.6
compound=CNC(=O)c1cccc2c1CCN2C(=O)Nc1ccc(C)cc1 value_observed=5.7
compound=Cc1ccc(-n2ncc3c(N4CCCCCC4)ncnc32)cc1 value_observed=-3.6
compound=Fc1ccc(-c2cn3cc(Cc4ccccc4)sc3n2)cc1 value_observed=2.6

---

molecular target: FLuc-C-HiBiT (firefly luciferase) (Photinus pyralis, UniProt P08659, form not given/L550V); assay: SDR assay, FLuc-C-HiBiT; settings: 10 nM FLuc-C-HiBiT; normalized activity; Log [Compound], M -4.96
This listing pairs compounds with measured SDR No ATP.
ENDPOINT_LABEL: SDR No ATP

compound=CNC(=O)c1cccc2c1CCN2C(=O)Nc1ccc(C)cc1 value_observed=47.7
compound=O=C(O)c1cccc2c1CCN2C(=O)Nc1ccc(F)cc1 value_observed=71.2
compound=Cc1ccc(-n2ncc3c(N4CCCCCC4)ncnc32)cc1 value_observed=71.7
compound="CC(CNC(=O)C1CCN(C(=O)c2ncn3c2COC(c2ccccc2)C3)CC1)c1ccccc1 (centres unmarked)" value_observed=11.6
compound=O=C(O)CCSc1nnc(-c2ccc(Cl)cc2Cl)o1 value_observed=24.2
compound=COc1ccc(-c2nc(-c3ccc(C(=O)O)cc3)no2)cc1 value_observed=40.5
compound="CC1CCCN(c2ncnc3c2cnn3-c2ccccc2)C1 (centres unmarked)" value_observed=67.4
compound=Fc1ccc(-c2cn3cc(Cc4ccccc4)sc3n2)cc1 value_observed=52.9

Numbers sourced from paper PMC12064818.
